# RUN DESCRIPTION: MELAS cybrid and Rieske KO viability enhancers – cell-based, MELAS cybrids, Rieske KO mouse fibroblasts, CellTiter-Glo, primary screen (AID 1508586);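 further: test concentration not given here; z relative to plate mean and SD of compound and empty wells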
# REPORTED CONDITIONS: MELAS cybrid survival, low glucose, CellTiter-Glo 48 h; stronger effect = higher value
*1 amine or outer side, *2 acyl side, *3 side chain or, on linkers, in order; H or OH if unused. Where a SMILES comes first, the peptide text is derived from it. Bridges are numbered along the chain shown (N, C = ends). Roman numbers before positions name the chains, in order. [ ]: non-standard residue; d: D form. Hexamethylenediamine = C(CCCN[*:2])CCN[*:1]; Dip = N[CH](C(=O)O)C(c1ccccc1)c1ccccc1; Chg = N[CH](C(=O)O)C1CCCCC1; NMeA = CN[CH](C)C(=O)O
QUANTITY KIND: z-score
Please reply with the number alone, leaving off any unit.

CC(=Cc1ccccc1)C=C1SC(=S)N(CC(=O)O)C1=O | -0.0963
Oc1ccc(C=Cc2cc(O)cc(O)c2)cc1 | -0.411
O=C(NCCOc1cccnc1)c1ccc2ncsc2c1 | 0.0996
CNC(C)C(=O)NC(C(=O)N1CCCC1C(=O)NC(C(=O)NCCCCCCNC(=O)C(NC(=O)C1CCCN1C(=O)C(NC(=O)C(C)NC)C1CCCCC1)C(c1ccccc1)c1ccccc1)C(c1ccccc1)c1ccccc1)C1CCCCC1 (stereo not drawn) (I: H-[NMeA][Chg]P[Dip] / II: H-[NMeA][Chg]P[Dip]; linker I:C-II:C via Hexamethylenediamine; configuration not given here) | -0.461
CN(CC(=O)N(Cc1ccc(C2CCCCC2)cc1)c1ccc(C(=O)O)cc1)S(=O)(=O)c1c(F)c(F)c(F)c(F)c1F | 1.94

input: Look at this compound and give its reported z-score. O=C1NC(=O)C(=Cc2ccc(-c3ccc(F)cc3)o2)S1
output: -0.386

input: Could you tell me which z-score is on file for Cc1ccc(NC(=O)c2ccc3nccnc3c2)cn1 ?
output: 0.00943

input: # z-score lookup, item Cc1nn(C)c(C)c1-c1ccnc(N(C)Cc2cc(-c3ccccn3)no2)n1
output: -0.553
